# MEASUREMENT_TARGET: Cyclin-dependent kinase 1/cyclin B1 (Homo sapiens, UniProt P06493)
# Sequence (P06493 whole entry): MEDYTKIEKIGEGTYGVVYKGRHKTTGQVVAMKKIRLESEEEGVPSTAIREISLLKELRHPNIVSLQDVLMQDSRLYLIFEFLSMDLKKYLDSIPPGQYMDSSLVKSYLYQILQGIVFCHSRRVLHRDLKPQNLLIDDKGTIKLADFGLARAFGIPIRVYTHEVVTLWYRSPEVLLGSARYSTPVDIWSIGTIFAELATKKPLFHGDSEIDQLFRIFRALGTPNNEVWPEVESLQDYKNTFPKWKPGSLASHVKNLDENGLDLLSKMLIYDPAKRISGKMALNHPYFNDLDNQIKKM
# Sequence (P14635 whole entry, further chain): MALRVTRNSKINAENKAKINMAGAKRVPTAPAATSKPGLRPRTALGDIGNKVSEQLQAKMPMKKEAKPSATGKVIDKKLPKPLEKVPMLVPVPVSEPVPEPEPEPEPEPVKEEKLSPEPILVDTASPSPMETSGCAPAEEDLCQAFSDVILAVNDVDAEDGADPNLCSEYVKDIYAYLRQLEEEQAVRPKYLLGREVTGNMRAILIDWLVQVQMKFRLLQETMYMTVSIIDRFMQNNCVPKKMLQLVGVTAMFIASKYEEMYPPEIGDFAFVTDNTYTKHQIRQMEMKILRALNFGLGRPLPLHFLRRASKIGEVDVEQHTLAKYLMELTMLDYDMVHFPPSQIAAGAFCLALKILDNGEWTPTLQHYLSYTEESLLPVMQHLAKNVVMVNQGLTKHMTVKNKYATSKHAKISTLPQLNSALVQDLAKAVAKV
# METHOD_DESCRIPTION: Inhibition of recombinant CDK1/cyclin B1 (unknown origin) using protein as substrate
MEASURED_PARAMETER: IC50

[[record]]
smiles_notation = "COc1cc2ncc(C#N)c(Nc3ccc(OCc4ccccn4)c(Cl)c3)c2cc1NC(=O)/C=C/CN(C)C"
test_result = "> 18 µM"


====

# MEASUREMENT_TARGET: Cyclin-dependent kinase 4/cyclin D1 (Homo sapiens)
# Sequence (P11802 whole entry): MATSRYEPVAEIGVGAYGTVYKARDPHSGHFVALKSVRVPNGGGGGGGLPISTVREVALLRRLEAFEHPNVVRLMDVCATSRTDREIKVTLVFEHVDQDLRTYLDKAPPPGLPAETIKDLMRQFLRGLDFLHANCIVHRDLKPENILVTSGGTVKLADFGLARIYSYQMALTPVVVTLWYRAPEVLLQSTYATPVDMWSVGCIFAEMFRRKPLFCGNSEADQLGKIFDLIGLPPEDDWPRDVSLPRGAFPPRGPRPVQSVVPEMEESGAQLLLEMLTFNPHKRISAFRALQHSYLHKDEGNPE
# Sequence (P24385 whole entry, further chain): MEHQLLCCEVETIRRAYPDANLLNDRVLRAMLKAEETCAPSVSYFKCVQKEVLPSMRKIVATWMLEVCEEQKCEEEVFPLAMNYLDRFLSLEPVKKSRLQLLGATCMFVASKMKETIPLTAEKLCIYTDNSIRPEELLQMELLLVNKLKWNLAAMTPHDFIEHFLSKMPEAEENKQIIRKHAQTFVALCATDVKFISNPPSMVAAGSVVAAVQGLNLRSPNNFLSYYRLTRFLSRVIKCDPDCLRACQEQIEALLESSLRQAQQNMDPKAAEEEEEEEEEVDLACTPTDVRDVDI
# METHOD_DESCRIPTION: Inhibition of recombinant CDK4/cyclin D1 (unknown origin) using protein as substrate
pIC50: −log10 of the molar value.
MEASURED_PARAMETER: pIC50

[[record]]
smiles_notation = "COc1cc2ncc(C#N)c(Nc3ccc(OCc4ccccn4)c(Cl)c3)c2cc1NC(=O)/C=C/CN(C)C"
test_result = "< 4.30"


====

# Test system: BT-474
# METHOD_DESCRIPTION: Cell cycle arrest in human BT-474 cells assessed as reduction in accumulation of cells at S phase measured after 12 to 16 hrs by BrdUrd uptake assay
# Format: functional, cell-based
pIC50: −log10 of the molar value.
MEASURED_PARAMETER: pIC50

[[record]]
smiles_notation = "COc1cc2ncc(C#N)c(Nc3ccc(OCc4ccccn4)c(Cl)c3)c2cc1NC(=O)/C=C/CN(C)C"
measured_parameter = "pIC50"
test_result = 8.70


====

# Tested on: BT-474
# METHOD_DESCRIPTION: Cell cycle arrest in human BT-474 cells assessed as down regulation of cyclin D1 expression incubated for 12 to 16 hrs by Western blot analysis
# Format: functional, cell-based
pIC50: −log10 of the molar value.
MEASURED_PARAMETER: pIC50

[[record]]
smiles_notation = "COc1cc2ncc(C#N)c(Nc3ccc(OCc4ccccn4)c(Cl)c3)c2cc1NC(=O)/C=C/CN(C)C"
test_result = 8.05


====

# MEASUREMENT_TARGET: RAC-alpha serine/threonine-protein kinase (Homo sapiens)
# Sequence (P31749 whole entry): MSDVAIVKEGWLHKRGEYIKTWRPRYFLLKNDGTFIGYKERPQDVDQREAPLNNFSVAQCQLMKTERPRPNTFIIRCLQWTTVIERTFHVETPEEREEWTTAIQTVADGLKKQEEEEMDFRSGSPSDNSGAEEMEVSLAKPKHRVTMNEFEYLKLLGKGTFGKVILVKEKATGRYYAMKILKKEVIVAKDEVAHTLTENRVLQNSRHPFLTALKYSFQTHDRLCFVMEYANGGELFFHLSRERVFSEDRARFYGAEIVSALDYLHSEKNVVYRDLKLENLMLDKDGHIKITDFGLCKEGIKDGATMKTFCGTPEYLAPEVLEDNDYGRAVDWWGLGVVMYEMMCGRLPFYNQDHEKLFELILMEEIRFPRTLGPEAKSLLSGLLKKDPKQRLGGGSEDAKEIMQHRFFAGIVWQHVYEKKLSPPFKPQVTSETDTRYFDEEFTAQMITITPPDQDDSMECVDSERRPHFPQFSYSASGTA
# METHOD_DESCRIPTION: Inhibition of recombinant AKT (unknown origin) using peptide as substrate
MEASURED_PARAMETER: IC50

[[record]]
smiles_notation = "COc1cc2ncc(C#N)c(Nc3ccc(OCc4ccccn4)c(Cl)c3)c2cc1NC(=O)/C=C/CN(C)C"
measured_parameter = "IC50"
test_result = "> 20 µM"


====

# METHOD_DESCRIPTION: Terminal half life in nude mouse at 20 mg/kg, po administered as single dose
# Type: ADME, organism-based
# CONDITION_INFO: in vivo, read-out: beta t1/2 (converted)
MEASURED_PARAMETER: half-life

[[record]]
smiles_notation = "COc1cc2ncc(C#N)c(Nc3ccc(OCc4ccccn4)c(Cl)c3)c2cc1NC(=O)/C=C/CN(C)C"
measured_parameter = "half-life"
test_result = "~4 h"


====

# METHOD_DESCRIPTION: Cytotoxicity against mouse 3T3 cells assessed as inhibition of cell proliferation measured after 2 days by sulforhodamine B assay
# Assay type: toxicity, cell-based
# CONDITION_INFO: NIH3T3 (3T3) cells
MEASURED_PARAMETER: IC50 at 2 days

[[record]]
smiles_notation = "COc1cc2ncc(C#N)c(Nc3ccc(OCc4ccccn4)c(Cl)c3)c2cc1NC(=O)/C=C/CN(C)C"
test_result = "700 nM"

